These measurements were taken from ChEMBL document CHEMBL1649173.

assay: Apparent total volume of distribution in fasted state healthy human at 200 mg, po administered as single dose; assay type: ADME, organism-based; conditions: in vivo, read-out: Vz/F
REPORTED_PROPERTY: Vd/F (L)
Numbers only; they are read as L.

QUERY: Reported Vd/F for COP(=O)(c1cc(C)cc(/C=C/C#N)c1)c1c(C(N)=O)[nH]c2ccc(Cl)cc12 (stereo unspecified) : what is it?
RESULT: 555

###

test: Plasma concentration in fasted state healthy human at 400 mg, po administered as single dose after 24 hrs; type: ADME, organism-based
REPORTED_PROPERTY: concentration at 24 h (ng/mL)
Numbers only; they are read as ng/mL.

QUERY: Reported concentration at 24 h for COP(=O)(c1cc(C)cc(/C=C/C#N)c1)c1c(C(N)=O)[nH]c2ccc(Cl)cc12 (stereo unspecified) : what is it?
RESULT: 160
